Known pIC50 of a selection of binders
Molecular target: T1, His-tagged, full-length PCSK9 (human, UniProt Q8NBP7 31-692)
T1 construct: The secreted protein is autocleaved into a prodomain and a catalytic/Cys-rich chain that starts at S153; also called His-PCSK9
T1 sequence (Q8NBP7 other isoform, or with tags, fused parts or gaps limits assumed): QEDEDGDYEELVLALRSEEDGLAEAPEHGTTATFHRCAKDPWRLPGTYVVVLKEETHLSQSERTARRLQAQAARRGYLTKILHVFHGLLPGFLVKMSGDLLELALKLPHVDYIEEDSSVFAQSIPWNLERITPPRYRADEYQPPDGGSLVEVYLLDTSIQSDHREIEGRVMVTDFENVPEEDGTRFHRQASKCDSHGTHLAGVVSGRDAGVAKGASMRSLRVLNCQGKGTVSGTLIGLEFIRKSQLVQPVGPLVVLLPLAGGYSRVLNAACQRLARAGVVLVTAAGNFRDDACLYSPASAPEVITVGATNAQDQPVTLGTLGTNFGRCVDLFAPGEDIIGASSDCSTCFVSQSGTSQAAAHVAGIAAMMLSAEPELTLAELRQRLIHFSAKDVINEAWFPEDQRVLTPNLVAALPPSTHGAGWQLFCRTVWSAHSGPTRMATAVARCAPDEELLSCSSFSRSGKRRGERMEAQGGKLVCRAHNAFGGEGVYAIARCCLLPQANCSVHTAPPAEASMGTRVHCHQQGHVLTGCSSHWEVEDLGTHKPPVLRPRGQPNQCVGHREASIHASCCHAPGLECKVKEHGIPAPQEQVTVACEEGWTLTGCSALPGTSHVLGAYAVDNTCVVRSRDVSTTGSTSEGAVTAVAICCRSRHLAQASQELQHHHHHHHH
Assay: TR-FRET competition; His-PCSK9, competitor EGF(A)-Fc
pIC50: −log10 of the molar value. Ends that are not written are not given here. * marks the point of attachment. Pentanoyl = CCCCC(=O)*

Pentanoyl-WNLKRIGLLR-NH2 (SMILES CCCCC(=O)N[C@@H](Cc1c[nH]c2ccccc12)C(=O)N[C@@H](CC(N)=O)C(=O)N[C@@H](CC(C)C)C(=O)N[C@@H](CCCCN)C(=O)N[C@@H](CCCNC(=N)N)C(=O)N[C@H](C(=O)NCC(=O)N[C@@H](CC(C)C)C(=O)N[C@@H](CC(C)C)C(=O)N[C@@H](CCCNC(=N)N)C(N)=O)[C@@H](C)CC) [Compound 159] | ≤ 4.30
WNLVRIGLLR (also: further groups not given here, Structure printed only as a drawing) [Compound 142] | ≤ 4.30

Field: next binder
IN: Assign pIC50 to the following record: WNLVRIGLTR (also: further groups not given here, Structure printed only as a drawing) [Compound 165]
OUT: ≤ 4.30

Hello, the source for this data is patent US20200283478A1, in case you need it.
